Data provenance is patent US9783511B2.

human RORgammaT-Ligand Binding Domain (LBD) (Homo sapiens (Human), UniProt P51449): recorded IC50 for assorted compounds
Sequence (P51449 269-508): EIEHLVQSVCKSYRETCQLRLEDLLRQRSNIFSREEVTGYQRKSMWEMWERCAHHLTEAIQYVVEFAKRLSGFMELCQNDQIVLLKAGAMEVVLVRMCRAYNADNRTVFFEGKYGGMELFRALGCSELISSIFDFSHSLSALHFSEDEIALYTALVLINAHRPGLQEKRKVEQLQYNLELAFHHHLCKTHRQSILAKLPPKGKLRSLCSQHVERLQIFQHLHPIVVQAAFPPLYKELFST
Readout Label: IC50 (µM)

See these solved cases before continuing.
• CC(C)(OC(=O)Nc1ccc2c(c1)N(S(=O)(=O)c1ccc(Cl)cn1)C[C@H](CCC(=O)O)O2)C(F)(F)F = 0.015
• CC(C)(OC(=O)Nc1ccc2c(c1)N(S(=O)(=O)c1cccc(OC(F)(F)F)c1)C[C@H](CCC(=O)O)O2)C(F)(F)F = 0.006

1. CC(C)(C[C@H]1CN(S(=O)(=O)c2cncc(C#N)c2)c2cc(NC(=O)OC(C)(C)C(F)(F)F)ccc2O1)C(=O)O [Example 12M]
2. Cc1ccc(S(=O)(=O)N2C[C@H]([C@@H]3C[C@H]3C(=O)O)Oc3ccc(NC(=O)OC(C)(C)C(F)(F)F)cc32)cc1 (single isomer, unassigned) [Example 22H]
3. COc1cc(S(=O)(=O)N2C[C@H](CC(C)(CO)C(=O)O)Oc3ccc(NC(=O)OC(C)(C)C(F)(F)F)cc32)ccc1F (single isomer, unassigned) [Example 18J]
4. C[C@@H](C[C@H]1CN(S(=O)(=O)c2cccc(C3CC3)c2)c2cc(NC(=O)OC(C)(C)C(F)(F)F)ccc2O1)C(=O)O (single isomer, unassigned)
Arrange these compounds by their IC50, starting with the largest number. Returns: the labels listed in the requested order.
2, 1, 4, 3
(2: 0.141 µM, 1: 0.0618 µM, 4: 0.0178 µM, 3: 0.00913 µM)
